Tested on: Plasmodium berghei
Experimental details: Screen against P. berghei liver stage (PbLuc), transformed with Luciferase, at 10uM
Assay type: functional, HepG2
Condition: tested at 10 uM
Screen size: about 69,000 compounds; about 8,600 (12%) showed an effect of 50% or more. For the sample, strong results were picked, then their nearest neighbours and some compounds at random.
Everything with INHIBITION lower than 30% is not satisfied; everything else, including exactly 30%, is satisfied.

Past entries and their recorded results:
INSERT INTO assay_data (compound, class_label) VALUES
  ('CSCC[C@H](N)c1nnc(SCc2cc(C)ccc2C)o1', 'not satisfied'),
  ('CC(c1ccc(Cl)cc1)N1CCN(CCNS(C)(=O)=O)CC1 (configuration not stated)', 'satisfied'),
  ('CCS(=O)(=O)CCCN1CCSCC1c1ccc(Cl)cc1 (configuration not stated)', 'satisfied');

# ---- query compound ----
**Query** Given CS(=O)(=O)CCCN1CCSCC1c1ccc(Cl)cc1 (configuration not stated) , state whether its INHIBITION is at least 30%.
**Result** satisfied

###

Test system: Plasmodium berghei
Experimental details: Screen against P. berghei liver stage (PbLuc), transformed with Luciferase, at 10uM
Assay type: functional, HepG2
Condition: tested at 10 uM
About 8,600 (12%) of roughly 69,000 compounds showed an effect of 50% or more. This is one part of a sample in which strong results are shown more often than they occur.
Kindly apply the following: Y if INHIBITION is less than 30%, N in every other case.

Consider the worked cases shown below.
INSERT INTO assay_data (molecule, class_label) VALUES
  ('O[C@H]1[C@H](NCCc2ccccn2)c2ccccc2C12CCNCC2', 'Y'),
  ('CC1(C)[C@@H]2CC=C(CN3CCCn4nc(CNS(C)(=O)=O)cc4C3)[C@H]1C2', 'Y');

**Query** Quick check: does "O=C(NCc1cc2n(n1)CCCN(Cc1ccc(CO)o1)C2)C1CCC1" have INHIBITION under 30%?
**Result** Y

**Query** Would you mind doing O=C(CSC1CCc2ccccc2NC1=O)NCc1cccs1 (stereo unspecified) as well?
**Result** Y

**Query** Subsequent entry: "CN1[C@@H](C(=O)NCC2CC2)C[C@@H]2CN(Cc3ccsc3)C[C@@H]21"
**Result** Y

###

System: Plasmodium berghei
Experimental details: Screen against P. berghei liver stage (PbLuc), transformed with Luciferase, at 10uM
Format: functional, HepG2
Condition: tested at 10 uM
The whole screen tested about 69,000 compounds, of which about 8,600 (12%) showed an effect of 50% or more. The sample as a whole holds a higher share of strong results than the screen did.
Recorded endpoint: INHIBITION (%)
Number only, in %; omit the unit.

**Query** # query: INHIBITION of entry Cc1ccc(N2CCCc3sc(C(=O)NCC4CCCO4)nc32)nn1 (centres undefined)
**Result** 15.4

###

Tested on: Plasmodium berghei
Experimental details: Screen against P. berghei liver stage (PbLuc), transformed with Luciferase, at 10uM
Format: functional, HepG2
Condition: tested at 10 uM
In all, about 69,000 compounds went through this assay and about 8,600 (12%) showed an effect of 50% or more. For the sample, strong results were picked, then their nearest neighbours and some compounds at random.
Measured INHIBITION values are reported for all entries that follow.
Give a bare numeral; the unit % is implied.

**Query** Data request, read-out INHIBITION, for CCc1n[nH]c(C2CN(C(=O)c3cc4c(s3)CCC4)CCO2)n1 (stereo unspecified)
**Result** -7.31

###

System: Plasmodium berghei
Experimental details: Screen against P. berghei liver stage (PbLuc), transformed with Luciferase, at 10uM
Assay type: functional, HepG2
Condition: tested at 10 uM
About 8,600 (12%) of roughly 69,000 compounds showed an effect of 50% or more. The list comes from a sample in which strong results are over-represented; it also holds close analogues and randomly drawn compounds.
Label Condition met when INHIBITION is strictly below 10%; at or above that, label Condition not met.

Recorded results for 6 compounds are shown here.
INSERT INTO measurements (compound, class_label) VALUES
  ('c1ccc(-c2nnc([C@H]3CCN(C4CCOCC4)C3)o2)cc1', 'Condition not met'),
  ('CCOC(=O)c1cnn(C2CCN(C(=O)CC3CCCC3)CC2)c1N', 'Condition not met'),
  ('O=C(c1cccnc1)N(CCO)Cc1cc(Br)ccc1F', 'Condition met'),
  ('COc1ncnc2c1CCN(C(=O)Cc1cccc(F)c1)CC2', 'Condition not met'),
  ('CC(c1nc(C2CC2)no1)N1CCN(CCCN2CCCC2=O)CC1 (centres undefined)', 'Condition met'),
  ('COCCOCC(=O)N1CCC(c2ccccc2F)C1 (centres undefined)', 'Condition met');

**Query** Determine whether this compound shows INHIBITION lower than 10% (ties excluded): "O=C(Cc1cccc(F)c1)N1CCc2ncnc(N3CCCC3)c2CC1"
**Result** Condition met

**Query** Item: "CC(C)NC(=O)[C@@H]1CCO[C@@H]2CCN(c3ncccn3)C[C@@H]21"
**Result** Condition met

###

System: Plasmodium berghei
Experimental details: Screen against P. berghei liver stage (PbLuc), transformed with Luciferase, at 10uM
Type: functional, HepG2
Condition: tested at 10 uM
Among all 69,000 compounds or so, about 8,600 (12%) showed an effect of 50% or more. This is one part of a sample in which strong results are shown more often than they occur.
Recorded endpoint: INHIBITION (%)
Give a bare numeral; the unit % is implied.

Some solved entries appear below for comparison.
INSERT INTO measurements (compound, recorded_endpoint, quantitative_result) VALUES
  ('CN1CCC(c2cccc(Cc3ccc(C(F)(F)F)cc3)n2)CC1', 'INHIBITION', 85.7),
  ('Cc1ccccc1CSc1nc(N)cc(N2C[C@H](O)[C@@H](N(C)C)C2)n1', 'INHIBITION', 58.2),
  ('Cc1nc(N(C)CCCc2nccn2C)c2nc(C)oc2n1', 'INHIBITION', -26.7),
  ('COCCN(Cc1cccnc1)c1nc(C)nc2oc(C)nc12', 'INHIBITION', 44.3),
  ('CN(C)c1nccc(N2CCO[C@H]3CN(Cc4nccn4C)C[C@H]32)n1', 'INHIBITION', 80.2),
  ('CN1CCC(c2cccc(Cc3ccc(F)cc3)n2)CC1', 'INHIBITION', 35.8),
  ('CCOc1ccc(CN(CCOC)c2nc(C)nc3oc(C)nc23)cc1', 'INHIBITION', 83.2),
  ('CN1CCC(c2cccc(CCC(=O)NCC(N)=O)n2)CC1', 'INHIBITION', -6.92),
  ('Cc1noc(C)c1CN1CCO[C@H]2CN(Cc3nccn3C)C[C@H]21', 'INHIBITION', 0.72),
  ('CC(C#N)(NC(=O)c1ccc(C#N)cc1)C1CC1 (stereo not drawn)', 'INHIBITION', 2.45);

**Query** Can you look up the measured INHIBITION of COCC(C)Nc1ccc(-c2nc(Cc3ccc(F)cc3)no2)cn1 (stereo not drawn) for me?
**Result** 49

**Query** Likewise for "O=C(c1ccccc1F)N1C[C@@H]2COC[C@]2(COCc2cccnc2)C1" ?
**Result** 10

**Query** Next: "CCc1nnc(SCC(=O)N2C[C@H]3CC[C@@H](C2)N(CC=C(C)C)C3)[nH]1"
**Result** 26.7

**Query** Query "Cc1nc(-c2ccc(F)cc2)cc(C2CCNCC2)n1" next
**Result** 54.5

**Query** Consider next the compound "Cc1ccc(-c2cc(C3CCNCC3)nc(C)n2)cc1" in the same way.
**Result** 6.26

**Query** Follow-up entry: "CCc1nnc(CN(C)Cc2cccc(C(=O)Nc3nccs3)c2)o1"
**Result** 70.9

**Query** Try this compound too: Cc1ccccc1CSc1nc(N)cc(N2CCCC(O)C2)n1 (stereo not drawn)
**Result** 15.2

###

System: Plasmodium berghei
Experimental details: Screen against P. berghei liver stage (PbLuc), transformed with Luciferase, at 10uM
Assay type: functional, HepG2
Condition: tested at 10 uM
The whole screen tested about 69,000 compounds, of which about 8,600 (12%) showed an effect of 50% or more. The sample holds strong results, similar compounds and a random draw of the others, so the mix is not that of the screen.
Recorded endpoint: INHIBITION (%)
Report the value in % with no unit label.

INSERT INTO measurements (molecule, quantitative_result) VALUES
  ('Cc1cc(CN2CCCC2)cc(Oc2nc(C)cnc2C)c1', 89.4),
  ('Cc1cc(N(C)Cc2ncc(-c3ccccc3C(=O)O)s2)ncn1', 5.6045),
  ('Cn1ccnc1CN1CCCN(C(=O)COC2CCCC2)CC1', -11.4),
  ('c1cc(-c2cn[nH]c2)ccc1CN1CCCCC1', 10.6);

**Query** Reported INHIBITION, molecule "COc1ccc(-c2cc(N)on2)cc1" : ____
**Result** -3.34

**Query** Query CC(OCC1CC1)C(=O)N1CCCN(Cc2nccn2C)CC1 (configuration not stated) next
**Result** 9.32

**Query** Try the molecule CCc1ccc(C2CC(=O)Nc3cc(OC)c(NS(C)(=O)=O)cc32)o1 (configuration not stated)
**Result** 61.5
